This collection of values is drawn from ChEMBL document CHEMBL1201862.

Reported GI50 by item:
Test system: M19-MEL
Assay: NCI tumour cell line growth inhibition, 48 h
Active and inactive are the calls of the source. No stated cut-off is given here; in the data, active = GI50 up to about 1.1 µM and inactive = higher.

[
  {
    "compound": "C=C1C(=O)C23C(CC(OC(C)=O)C1[C@@H]2OC(C)=O)C1(C)C(OC(C)=O)CCC(C)(C)C1C[C@@H]3OC(C)=O (some centres undefined)",
    "test_readout": "GI50",
    "result": "1.75 µM (inactive)"
  },
  {
    "compound": "COc1cc(OC)c(Oc2cccc(OC)c2OC)c(OC)c1",
    "test_readout": "GI50",
    "result": "> 100 µM (inactive)"
  },
  {
    "compound": "C=C(C)CC(C)(c1cc2ccccc2n1C)N1CCOCC1 (centres undefined)",
    "test_readout": "GI50",
    "result": "> 100 µM (inactive)"
  }
]

Form entry - test system: M19-MEL; read-out: GI50; compound: `CCOC(=O)C(=O)Nc1ccc(Cl)cc1C`
> 100 µM (inactive)
